# EXPERIMENT DESCRIPTION: Rat brain radioactivity content and metabolite profiles after single oral 5 mg/kg [14C]DCDQ
# Format: in vivo, Sprague-Dawley rats
# MEASUREMENT SETUP: Sprague-Dawley, rat, brain and plasma, oral, 5 mg/kg; male rats, 2 hr; read-out: Brain/Plasma Ratio, DCDQ
ENDPOINT LABEL: Kp at 2 h

INSERT INTO measurements (compound, result) VALUES
  ('c1cc2c3c(c1)[C@H]1CCC[C@H]1CN3CCNC2 [DCDQ, reference compound]', 56.4);

====

# EXPERIMENT DESCRIPTION: Dog plasma metabolite profiles after single 15 mg/kg oral capsule of [14C]DCDQ
# Assay type: in vivo, beagle dogs
# MEASUREMENT SETUP: male, beagle, dog, plasma, oral, 15 mg/kg, 8 hr, dog 1; read-out: Estimated plasma concentration in dogs
# Description: For plasma profiles, a TopCount NXT radiometric microplate reader (Perkin Elmer) was used to analyze the radioactivity in collected HPLC fractions. The limit of detection by TopCount was about 1 ng equivalent/mL. A Flo-One β Model A525 radioactivity detector (Perkin Elmer) with a 250 μL LQTR flow cell was used to acquire data for urine and fecal samples. […] Plasma samples were analyzed for metabolite profiles by HPLC. […] The plates were dried overnight in an oven at 40° C. and analyzed by a TopCount. […]
ENDPOINT LABEL: concentration at 8 h

INSERT INTO results (compound, endpoint_label, result) VALUES
  ('c1cc2c3c(c1)[C@H]1CCC[C@H]1CN3CCNC2 [DCDQ, reference compound]', 'concentration at 8 h', '14.5 ng/mL'),
  ('OC1CN2C[C@@H]3CCC[C@@H]3c3cccc(c32)CN1 (stereo partly shown) [Metabolite M1, hydroxy DCDQ]', 'concentration at 8 h', '43.3 ng/mL'),
  ('O=C(O)[C@H]1O[C@@H](OC(=O)N2CCN3C[C@@H]4CCC[C@@H]4c4cccc(c43)C2)[C@H](O)[C@@H](O)[C@@H]1O [Metabolite M6, carbamoyl glucuronide of DCDQ]', 'concentration at 8 h', '37.9 ng/mL'),
  ('[O-][N+]12CCN=Cc3cccc(c31)[C@H]1CCC[C@H]1C2 (stereo partly shown) [Metabolite M5, DCDQ imine N-oxide]', 'concentration at 8 h', '21.7 ng/mL');
